# Test system: calvaria
# method-notes: Inhibition of bone resorption (45Ca release from calvaria stimulated with hPTH (1-34), method of Raisz)
# Format: cell-based, new born ICR mouse
# measurement-context: Mus musculus, 72 h; 45Ca release, 50 nM hPTH (1-34), 3 days incubation; test concentrations 0.04, 0.2 and 1 μM; mean of 4 pairs; read-out: IC50 (inhibition of bone resorption)
Known pIC50 of a selection of compounds
Convention used: pIC50 is expressed as -log10 of the molar concentration.

> print(dat)
                                   compound   val
1  COc1ccc(CN2N=C(c3ccc(Cl)cc3)c3ccccc3-n3c(C)nnc32)cc1Cl  6.07
2  CCc1cc2c(s1)-n1c(C)nnc1N(Cc1ccncc1)N=C2c1ccccc1  6.17
3  Cc1ccc2c(c1)-n1c(C)nnc1N(Cc1ccncc1)N=C2c1ccccc1  6.00
4  Cc1cccc(CN2N=C(c3ccc(Cl)cc3)c3ccccc3-n3c(C)nnc32)c1  6.23

Supply pIC50 value. Item: CC(=O)Nc1ccc(CN2N=C(c3ccc(Cl)cc3)c3ccccc3-n3c(C)nnc32)cc1
6.59

Supply pIC50 value. Item: Cc1nnc2n1-c1ccc([N+](=O)[O-])cc1C(c1ccccc1)=NN2Cc1ccncc1
6.74

Supply pIC50 value. Item: COc1ccc(CN2N=C(c3ccc(Cl)cc3)c3ccccc3-n3c(C)nnc32)cc1
6.92

Supply pIC50 value. Item: Cc1sc2c(c1C)C(c1ccccc1)=NN(Cc1ccncc1)c1nnc(C)n1-2
7.00

Supply pIC50 value. Item: Cc1sc2c(c1C)C(c1ccc(Cl)cc1)=NN(Cc1ccncc1)c1nnc(C)n1-2
7.30

Supply pIC50 value. Item: Cc1cc2c(s1)-n1c(C)nnc1N(Cc1ccncc1)N=C2c1ccccc1
6.57

Where these numbers come from: patent US5807850A
